# Assay system: Histamine H4 receptor (Homo sapiens, UniProt Q9H3N8)
# Sequence (Q9H3N8 whole entry): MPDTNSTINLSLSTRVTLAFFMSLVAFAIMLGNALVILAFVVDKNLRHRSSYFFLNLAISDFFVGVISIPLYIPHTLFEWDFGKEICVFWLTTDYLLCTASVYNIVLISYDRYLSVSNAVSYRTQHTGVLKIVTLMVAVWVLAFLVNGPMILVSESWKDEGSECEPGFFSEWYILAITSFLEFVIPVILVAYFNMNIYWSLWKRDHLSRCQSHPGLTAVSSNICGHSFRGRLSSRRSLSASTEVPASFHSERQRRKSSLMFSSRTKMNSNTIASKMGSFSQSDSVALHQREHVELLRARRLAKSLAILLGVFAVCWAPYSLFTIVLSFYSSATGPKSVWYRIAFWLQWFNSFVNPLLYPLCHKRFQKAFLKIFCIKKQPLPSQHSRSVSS
Quantity: Ki
Write down the value, and be sure its unit follows.

INSERT INTO results (line_notation, assay_system, observed_measurement) VALUES
  ('CC(C)(C)CC(=O)c1cccc(Cc2cnc[nH]2)c1', 'Histamine H4 receptor (Homo sapiens, UniProt Q9H3N8)', '6 nM');

Switching to the query record.
input: Fill in: Ki of `CC(C)(C)C#Cc1cccc(Cc2c[nH]cn2)c1` is ___
output: 6 nM

* * *

# Assay system: Histamine H3 receptor (Homo sapiens, UniProt Q9Y5N1)
# Sequence (Q9Y5N1 whole entry): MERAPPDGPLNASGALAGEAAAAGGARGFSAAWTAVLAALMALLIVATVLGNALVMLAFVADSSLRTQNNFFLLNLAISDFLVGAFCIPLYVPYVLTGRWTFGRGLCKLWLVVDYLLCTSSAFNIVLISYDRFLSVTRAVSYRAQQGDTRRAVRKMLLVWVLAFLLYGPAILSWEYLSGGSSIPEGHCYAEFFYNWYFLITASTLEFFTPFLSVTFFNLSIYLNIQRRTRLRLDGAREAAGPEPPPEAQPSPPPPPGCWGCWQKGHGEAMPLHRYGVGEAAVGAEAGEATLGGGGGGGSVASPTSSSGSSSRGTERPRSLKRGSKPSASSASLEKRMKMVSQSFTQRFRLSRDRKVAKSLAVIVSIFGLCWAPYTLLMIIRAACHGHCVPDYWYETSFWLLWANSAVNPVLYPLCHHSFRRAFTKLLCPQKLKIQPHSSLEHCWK
# Protocol notes: H3R Radioligand Binding Assay
# Measurement context: pH 7.4; 25 °C
Quantity: pKi
Give bare numbers, as −log10 of the molar value.

INSERT INTO assay_data (line_notation, observed_measurement) VALUES
  ('C(#Cc1cccc(Cc2cnc[nH]2)c1)c1ccccc1', 8.70);

input: Identify the measured pKi of `CCCC#Cc1cccc(Cc2c[nH]cn2)c1` for Histamine H3 receptor (Homo sapiens, UniProt Q9Y5N1).
output: 8.52
